assay: A CellTox Green Cytotoxicity Assay to monitor cytotoxicity in HEK293 cells - 32 hour (AID 1224881); settings: CellTox Green fluorescence; series mostly up to 76.8 µM; note: nearly all actives have a fitted effect of over 40% in size
Records with an inconclusive call do not appear. Calls of active or inactive are those of the source. Calls come from the whole dose curve; as a rule, active = well fitted activation curve with a large enough effect in the repeat runs; inconclusive = weak or mixed curves; inactive = flat fitted curve, though single readings scatter.
Classes used: active, inactive

| Molecule | Assigned label |
| --- | --- |
| CCCCC(CC)COP(=O)(O)OCC(CC)CCCC (stereo not given) | active |
| Cc1cccc(S(=O)(=O)O)c1C | inactive |
| Clc1ccc2n[nH]nc2c1 | inactive |
| Cc1cc(O)c2ccccc2c1O | active |
| CCCCCCCC(=O)[O-].CCCCCCCC(=O)[O-].[Zn+2] | inactive |
| CCCCCCCCn1sc(Cl)c(Cl)c1=O | active |
| COC(=O)C1=C(C)NC(C)=C(C(=O)OCCc2ccc(N3CCN(C(c4ccccc4)c4ccccc4)CC3)cc2)C1c1cccc([N+](=O)[O-])c1 (stereo not given) | inactive |
| O=C(NOCC1CC1)c1ccc(F)c(F)c1Nc1ccc(I)cc1Cl | inactive |
| C[C@H](CCC(=O)O)[C@H]1CC[C@H]2[C@@H]3CC[C@@H]4C[C@H](O)CC[C@]4(C)[C@H]3CC[C@]12C | inactive |
| CNCc1cc(F)ccc1Oc1ccc(Cl)c(Cl)c1 | active |
